tested on: Trypanosoma cruzi; assay: Trypanocidal activity against Trypanosoma cruzi Dm28c trypomastigotes infected in monkey LLC-MK2 cells after 24 hrs by luminescent assay; format: functional, organism-based; settings: LLC-MK2, 24 h
METRIC NAME: IC50 (µM)
Supply the numeric figure in µM, leaving out any unit text.

Quote IC50 reported for O=C(Cn1ccnc1[N+](=O)[O-])NCc1ccccc1 [BENZNIDAZOLE] please.
24.7

----------
assay: Cytotoxicity activity against Swiss Webster mouse primary hepatocytes assessed as reduction in cell viability after 72 hrs by cell-titer-glo assay; assay type: cell-based, Hepatocyte
METRIC NAME: CC50 at 72 h

O=C(Cn1ccnc1[N+](=O)[O-])NCc1ccccc1 [BENZNIDAZOLE] : > 500 µM

# evaluate next
Supply CC50 at 72 h value. Item: O=C1C=C(O)C(=O)c2ccccc21 [LAWSONE]
> 500 µM

----------
test: Therapeutic index, ratio of CC50 for African green monkey Vero cells to IC50 for infected Swiss Webster mouse derived bloodstream form of Trypanosoma cruzi Y; assay type: toxicity; conditions: read-out: Ratio CC50/IC50
METRIC NAME: selectivity ratio
Format: numeric value only, no unit, no commentary.

Consider the compound O=C(Cn1ccnc1[N+](=O)[O-])NCc1ccccc1 and give its recorded selectivity ratio.
20.2

----------
assay: Cytotoxicity against Swiss Webster mouse cardiomyocytes after 72 hrs; parameters: species or system Cardiac Muscle Cell
METRIC NAME: CC50 at 72 h

Give CC50 at 72 h for the following molecule: O=C(Cn1ccnc1[N+](=O)[O-])NCc1ccccc1
> 500 µM

----------
assay: Therapeutic index, ratio of CC50 for African green monkey Vero cells to IC50 for Trypanosoma cruzi Y trypomastigotes infected in monkey LLC-MK2 cells; assay type: toxicity, cell-based; settings: read-out: Ratio CC50/IC50
METRIC NAME: selectivity ratio
Hey, just send me the number, nothing else.

Specify reported selectivity ratio for the compound shown: O=C(Cn1ccnc1[N+](=O)[O-])NCc1ccccc1
12.2

----------
assay: Therapeutic index, ratio of CC50 for Swiss Webster mouse cardiomyocytes to IC50 for Trypanosoma cruzi Y intracellular amastigotes infected in Swiss Webster mouse cardiomyocytes; assay type: toxicity, cell-based; details: read-out: Ratio CC50/IC50
METRIC NAME: selectivity ratio

Read off the recorded selectivity ratio for O=C(Cn1ccnc1[N+](=O)[O-])NCc1ccccc1
> 455

----------
experiment: Therapeutic index, ratio of CC50 for African green monkey Vero cells to IC50 for Trypanosoma cruzi Dm28c intracellular amastigotes infected in African green monkey Vero cells; format: toxicity, cell-based; conditions: read-out: Ratio CC50/IC50
Quick reference: selectivity ratio of the listed items.
I'd appreciate a reply containing only the number, no unit.

O=C1C=C(O)C(=O)c2ccccc21 [LAWSONE] : 2.39

Could you now consider this next compound?
Complete the entry with selectivity ratio for O=C(Cn1ccnc1[N+](=O)[O-])NCc1ccccc1 [BENZNIDAZOLE]
83.2
